Test system: NCI-H23 lung
Experiment: NCI-60 one-dose screen, 48 h (100 = growth as untreated, 0 = no growth, -100 = all killed)
Details: 10 µM unless noted
About 83,000 compounds went through this panel and 20% of them were active in at least one assay; those are over-represented in the sample as a whole.
Reported growth values for a set of compounds
Field: numeric (%). Do not append units.

> print(dat)
                                   compound  endpoint.unit  value.reported
1  COc1cc(C2CC(c3ccc(Cl)cc3)=NN2C(C)=O)ccc1Oc1ccnc2cc(Cl)ccc12 (stereo not drawn)              %            64.1
2  C#CCO[C@H]1CC[C@H](OCC#C)[C@@H]2[C@H]1[C@H]1C[C@@H]3[C@@]4(C)CCC[C@@](C)(C(=O)OC)[C@@H]4CC[C@@]23C=C1C(C)C              %            64.3

// next item, growth requested
Ask: Return reported growth; argument: CC1CCCN(CCCCOc2ccc(-c3ccc(C#N)cc3)cc2)C1 (stereo not drawn)
Result: 82.6

---

Test system: NCI/ADR-RES ovarian
Experiment: NCI-60 one-dose screen, 48 h (100 = growth as untreated, 0 = no growth, -100 = all killed)
Details: 10 µM unless noted
Compounds without any hit were thinned out: in the full panel of roughly 83,000, 20% have a hit. Activity calls are given as the source filed them. How the source made its calls: active means growth percent below 10; inactive means the rest.
Measured Parameter: growth

Some compounds with known growth results, for comparison:
Compound	growth
Clc1ccc(C2=NN[C@H](c3cn(-c4ccccc4)nc3-c3ccccc3)C2)cc1	55.9% (inactive)
COc1cc(C2CC(c3ccc(Cl)cc3)=NN2C=O)ccc1Oc1ccnc2cc(Cl)ccc12 (stereo not given)	76.6% (inactive)
COc1cc(OC)cc(-c2ccc(-c3ccc(C(=N)N)s3)s2)c1	-58% (active)
C=C(C)[C@@H]1CC[C@]2(C(=O)NC(COC(=O)C(Cl)Cl)(COC(=O)C(Cl)Cl)COC(=O)C(Cl)Cl)CC[C@]3(C)[C@H](CC[C@@H]4[C@@]5(C)CC[C@H](OC(C)=O)C(C)(C)[C@@H]5CC[C@]43C)[C@@H]12	71% (inactive)

Ask: Form field: reported growth of Cc1ccc(NC(=O)c2sc3nc4c(cc3c2N)C(=O)CCC4)cc1Cl
Result: 104% (inactive)

---

Tested on: TK-10 renal
Assay: NCI-60 one-dose screen, 48 h (100 = growth as untreated, 0 = no growth, -100 = all killed)
Conditions: 10 µM unless noted
Compounds without any hit were thinned out: in the full panel of roughly 83,000, 20% have a hit. Activity calls are given as the source filed them. Rule for the calls: active = growth percent below 10; inactive = the rest.
Parameter growth: see the listing below.

Solved entries (count: 5):
> print(dat)
                                   compound  tested.system    value.reported
1  CN1C(=O)N(C)C2C1NN=c1s/c(=C\c3ccc(Br)cc3)c(=O)n12 (stereo unspecified)    TK-10 renal  60.4% (inactive)
2       COc1ccc2nc(C)cc(Sc3nc4ccccc4s3)c2c1    TK-10 renal  61.4% (inactive)
3  Clc1ccc(-c2cnc3c(-c4ccnc(N5CCNCC5)c4)cnn3c2)cc1    TK-10 renal    1.85% (active)
4              O=C(N/N=C/c1ccccc1O)c1ccncc1    TK-10 renal  57.7% (inactive)
5  C#C[C@]1(O)CC[C@H]2[C@@H]3CC=C4c5sc(-c6cccc(Br)c6)nc5CC[C@]4(C)[C@H]3CC[C@@]21C    TK-10 renal  97.7% (inactive)

Ask: Using the record for c1cc2c(cc1-c1cnc3nonc3n1)OCO2 , report its growth.
Result: 105% (inactive)

Ask: Param item = C=CCOC(=O)C1=C(C)NC2=C(C(=O)CC(C)(C)C2)C1c1ccc(OC)cc1 (stereo unspecified) ; retrieve measured growth.
Result: 114% (inactive)

Ask: // growth lookup, key: COC(=O)CSc1ccc(Cl)cc1
Result: 104% (inactive)

Ask: Sample O=C(O)c1cc2cc(OCc3ccccc3)ccc2[nH]1 — what was its growth?
Result: 114% (inactive)

Ask: So what does the record say about growth for CCCCCCCCCCCCNC(=O)N[C@H](C(=O)N[C@H]1/C=C/OCCNC(=O)/C=C/[C@H](C(C)C)NC1=O)C(C)C ?
Result: 97.1% (inactive)

Ask: Given the entry COc1cc2ncnc(Nc3ccc(S(=O)(=O)Nc4nccs4)cc3)c2cc1OCCCN1CCOCC1 , report its measured growth.
Result: 103% (inactive)

Ask: Quick one: growth of CCN(CC)CCCC(C)Nc1ccnc2ccc(Oc3ccccc3)cc12 (stereo unspecified) ?
Result: 93.5% (inactive)

Ask: Look up growth for this compound: CCN(CC)CCNC(=O)C(F)(F)C(F)(F)C(F)(F)F
Result: 108% (inactive)

Ask: Would you kindly share the measured growth for CCn1c(Cc2ccccc2Nc2c(Cl)cccc2Cl)nnc1SCC(=O)Nc1cccc(OC)c1 ?
Result: 82.8% (inactive)

Ask: Quick one: growth for Oc1ccc(-c2nnc3c4[nH]ccc4ncn23)cc1 ?
Result: 92.3% (inactive)

Ask: // query growth value for entry CC(C)OC1OC(OC(C)C)C(OC(C)C)OC1OC(C)C (stereo unspecified)
Result: 102% (inactive)

---

Test system: OVCAR-4 ovarian
Assay: NCI-60 one-dose screen, 48 h (100 = growth as untreated, 0 = no growth, -100 = all killed)
Conditions: 10 µM unless noted
The panel holds about 83,000 compounds, 20% with a hit somewhere; the sample as a whole holds those more often.
The label True is reserved for growth strictly under 90%; False covers values equal to or above it.

Ask: Strictly below 90% in growth? O=C1Nc2ccc(Br)cc2/C1=N/c1nc(-c2ccccc2)cs1
Result: True

Ask: Record CCCCCCCCCCCCCCCCCC1=NCCN1CCO : is its growth strictly below 90%?
Result: False

Ask: Does this compound meet the criterion growth < 90%? COc1cc(C2CC(c3ccccc3)=NN2C=O)ccc1Oc1nc2c(c(=O)n(C)c(=O)n2C)n1C (centres undefined)
Result: True

Ask: Given COc1ccc(N=C2CSc3nnc(-c4cc(F)c(Cl)cc4Cl)n3N2)cc1 , is recorded growth strictly lower than 90%?
Result: True

Ask: Find out if reported growth for COc1ccc(-c2nc3ccccc3n3cccc23)cc1 is less than 90%
Result: False

Ask: Here's an entry: CC[C@H](C)[C@H](N)C(=O)O . Is its growth below 90%?
Result: False

Ask: Lab note: growth threshold 90%. Does this compound come in strictly under it? COc1cc(C2CC(=O)Nc3c2cnn3C)cc(OC)c1OC (centres undefined)
Result: False

Ask: is_below(growth, 90%) for COc1cc(C2CC(c3ccc(Cl)cc3)=NN2C(C)=O)ccc1Oc1ccnc2cc(Cl)ccc12 (centres undefined) ?
Result: True

Ask: Dear colleague, could you confirm whether growth of O=C1C(Cl)=C(Nc2cccc3ccccc23)C(=O)c2ccccc21 falls below 90%? Thanks.
Result: True

---

Examples of compounds with documented growth follow.
System: TK-10 renal
Assay: NCI-60 one-dose screen, 48 h (100 = growth as untreated, 0 = no growth, -100 = all killed)
Conditions: 10 µM unless noted
Compounds without any hit were thinned out: in the full panel of roughly 83,000, 20% have a hit. Active and inactive are the calls of the source. How the source made its calls: active means growth percent below 10; inactive means the rest.

Some compounds with recorded growth:
> print(dat)
                                   compound  tested.system             value.reported
1   C[C@H](NC(=O)c1snnc1C1CC1)c1c(F)cccc1Cl    TK-10 renal            129% (inactive)
2  CS(=O)(=O)c1ccc(C(=O)N2N=C(c3ccccc3)CC2c2ccc3c(c2)OCO3)cc1 (stereo unspecified)    TK-10 renal            107% (inactive)
3        CCN(CC)c1ccc(/C=C2/NC(=O)NC2=O)cc1    TK-10 renal           49.5% (inactive)
4  CCCCCCCC/C=C/CCCCCCCC1=NC(C)(C)CN1c1ccccc1    TK-10 renal            118% (inactive)
5  COc1cc2c(cc1OC)-c1cc(OC)c(OC)cc1C(CN(C)C)C2 (stereo unspecified)    TK-10 renal  65.7% [100 µM] (inactive)

Now for the compound whose growth we want.
Ask: Recorded growth of c1cc(C2CCCCC2)ccc1-c1cnc2nonc2n1 , please.
Result: 15.6% (inactive)

---

Tested on: OVCAR-4 ovarian
Assay: NCI-60 one-dose screen, 48 h
Conditions: 10 µM unless noted
About 83,000 compounds went through this panel and 20% of them were active in at least one assay; those are over-represented in the sample as a whole. Activity calls are given as the source filed them. How the source made its calls: active means growth percent below 10; inactive means the rest.
Valid outcomes are listed here; reply with one: active, inactive

Sample answers from the record:
Compound	Tested System	Assigned Class
CCOC(=O)C1C(=O)C=C(c2cc(OC)c(OC)c(OC)c2)CC1c1sc(N(C)Cc2ccccc2)nc1Cl (configuration not stated)	OVCAR-4 ovarian	inactive
CC(C)OC1OC(OC(C)C)C(OC(C)C)OC1OC(C)C (configuration not stated)	OVCAR-4 ovarian	inactive
CCCCCCCCCCCCNC(=O)N[C@H](C(=O)N[C@H]1/C=C/OCCNC(=O)/C=C/[C@H](C(C)C)NC1=O)C(C)C	OVCAR-4 ovarian	inactive
NC(=S)N1N=C(c2ccc(Cl)cc2)CC1c1cc2ccccc2[nH]c1=O (configuration not stated)	OVCAR-4 ovarian	inactive
COc1ccc(-c2ccc(-c3ccc(C(=N)N)s3)s2)cc1	OVCAR-4 ovarian	active

Ask: What is the recorded call for this compound in the test? CCOC(=O)CCN(CCC(=O)OCC)c1ccccc1
Result: inactive

Ask: // param item: CO[C@H](C(=O)[C@@H](O)[C@@H](C)O)[C@@H]1Cc2cc3cc(O[C@H]4C[C@@H](O[C@H]5C[C@@H](O)[C@H](O)C(C)O5)[C@H](O)C(C)O4)c(C)c(O)c3c(O)c2C(=O)[C@H]1O[C@H]1C[C@@H](O[C@H]2C[C@@H](O[C@H]3C[C@](C)(O)C(=O)C(C)O3)[C@@H](O)C(C)O2)[C@H](O)C(C)O1 (some centres not stated) ; yields the recorded call
Result: active
